- TARGET UNDER TEST: urokinase (Homo sapiens, UniProt P00749)
- Construct: purchased Sigma (Schnelldorf, Germany)
- EXPERIMENT: Amidolytic activity of urokinase (chromogenic substrate pyro-Glu-Gly-Arg-pNA)
- Assay type: biochemical
- CONDITION PARAMETERS: amidolytic activity; Tris pH 8.8, 37 °C; IC50 by extrapolation using a linear plot; error 5%; read-out: IC50 Urokinase
pIC50: −log10 of the molar value.
QUANTITY KIND: pIC50

SUBSTANCE	INEQUALITY SYMBOL	RESULT VALUE
H-RTTKS-OH [Peptide 25, H-Arg-Thr-Thr-Lys-Ser-OH]	>	3.70
Ac-KTTKS-NH2 [Peptide 6, Ac-Lys-Thr-Thr-Lys-Ser-NH2]	<	1.70
Ac-RTTRS-NH2 [Peptide 22, Ac-Arg-Thr-Thr-Arg-Ser-NH2]	<	1.70
Ac-KTTRS-NH2 [Peptide 14, Ac-Lys-Thr-Thr-Arg-Ser-NH2]	=	2.25
H-KTTKS-NH2 [Peptide 5, H-Lys-Thr-Thr-Lys-Ser-NH2]	=	2.04
Ac-RTTKS-NH2 [Peptide 30, Ac-Arg-Thr-Thr-Lys-Ser- NH2]	=	1.92
H-RTTRS-NH2 [Peptide 21, H-Arg-Thr-Thr-Arg-Ser-NH2]	=	1.92

###

- EXPERIMENT: Viability of fibroblast cells, MTT assay
- Assay type: cell-based, Human
- CONDITION PARAMETERS: human, primary dermal fibroblast cells; 100 µmol/L, 24 h, MTT; ± 2; read-out: Viability of fibroblast cells
Residues, ends and D or L forms follow the SMILES beside them.
viability at 24 h, 100 µmol/L for assorted compounds

COMPOUND	UNITS	viability at 24 h, 100 µmol/L
C[C@@H](O)[C@H](NC(=O)[C@H](CCCNC(=N)N)NC(=O)CCCCC1CCSS1)C(=O)N[C@H](C(=O)N[C@@H](CCCNC(=N)N)C(=O)N[C@@H](CO)C(=O)O)[C@@H](C)O (mixture of isomers) [Peptide 19, Lip-Arg-Thr-Thr-Arg-Ser-OH]	%	90
CCCCCCCCCCCCCCCC(=O)N[C@@H](CCCCN)C(=O)N[C@H](C(=O)N[C@H](C(=O)N[C@@H](CCCCN)C(=O)N[C@@H](CO)C(N)=O)[C@@H](C)O)[C@@H](C)O [Peptide 8, Pal-Lys-Thr-Thr-Lys-Ser-NH2] (HELM PEPTIDE1{[CCCCCCCCCCCCCCCC(=O)[*:2]].K.T.T.K.S.[am]}$$$$V2.0)	%	83
CCCCCCCCCCCCCCCC(=O)N[C@@H](CCCNC(=N)N)C(=O)N[C@H](C(=O)N[C@H](C(=O)N[C@@H](CCCNC(=N)N)C(=O)N[C@@H](CO)C(=O)O)[C@@H](C)O)[C@@H](C)O [Peptide 20, Pal-Arg-Thr-Thr-Arg-Ser-OH] (HELM PEPTIDE1{[CCCCCCCCCCCCCCCC(=O)[*:2]].R.T.T.R.S}$$$$V2.0)	%	103
C[C@@H](O)[C@H](NC(=O)[C@H](CCCNC(=N)N)NC(=O)CCCCC1CCSS1)C(=O)N[C@H](C(=O)N[C@@H](CCCNC(=N)N)C(=O)N[C@@H](CO)C(N)=O)[C@@H](C)O (mixture of isomers) [Peptide 23, Lip-Arg-Thr-Thr-Arg-Ser-NH2]	%	88
C[C@@H](O)[C@H](NC(=O)[C@H](CCCNC(=N)N)NC(=O)CCCCC1CCSS1)C(=O)N[C@H](C(=O)N[C@@H](CCCCN)C(=O)N[C@@H](CO)C(=O)O)[C@@H](C)O (mixture of isomers) [Peptide 27, Lip-Arg-Thr-Thr-Lys-Ser-OH]	%	80

###

- TARGET UNDER TEST: urokinase (Homo sapiens)
- Construct: purchased Sigma (Schnelldorf, Germany)
- EXPERIMENT: Amidolytic activity of urokinase (chromogenic substrate pyro-Glu-Gly-Arg-pNA)
- Assay type: biochemical
- CONDITION PARAMETERS: amidolytic activity; Tris pH 8.8, 37 °C; IC50 by extrapolation using a linear plot; error 5%; read-out: IC50 Urokinase
pIC50: −log10 of the molar value. Residues, ends and D or L forms follow the SMILES beside them.
pIC50 for assorted molecules
QUANTITY KIND: pIC50

MOLECULE	TARGET UNDER TEST	RESULT VALUE
CCCCCCCCCCCCCCCC(=O)N[C@@H](CCCCN)C(=O)N[C@H](C(=O)N[C@H](C(=O)N[C@@H](CCCCN)C(=O)N[C@@H](CO)C(N)=O)[C@@H](C)O)[C@@H](C)O [Peptide 8, Pal-Lys-Thr-Thr-Lys-Ser-NH2] (HELM PEPTIDE1{[CCCCCCCCCCCCCCCC(=O)[*:2]].K.T.T.K.S.[am]}$$$$V2.0)	urokinase (Homo sapiens)	2.51
CCCCCCCCCCCCCCCC(=O)N[C@@H](CCCNC(=N)N)C(=O)N[C@H](C(=O)N[C@H](C(=O)N[C@@H](CCCNC(=N)N)C(=O)N[C@@H](CO)C(N)=O)[C@@H](C)O)[C@@H](C)O [Peptide 24, Pal-Arg-Thr-Thr-Arg-Ser-NH2] (HELM PEPTIDE1{[CCCCCCCCCCCCCCCC(=O)[*:2]].R.T.T.R.S.[am]}$$$$V2.0)	urokinase (Homo sapiens)	3.59
C[C@@H](O)[C@H](NC(=O)[C@H](CCCNC(=N)N)NC(=O)CCCCC1CCSS1)C(=O)N[C@H](C(=O)N[C@@H](CCCNC(=N)N)C(=O)N[C@@H](CO)C(N)=O)[C@@H](C)O (mixture of isomers) [Peptide 23, Lip-Arg-Thr-Thr-Arg-Ser-NH2]	urokinase (Homo sapiens)	2.33
C[C@@H](O)[C@H](NC(=O)[C@H](CCCCN)NC(=O)CCCCC1CCSS1)C(=O)N[C@H](C(=O)N[C@@H](CCCNC(=N)N)C(=O)N[C@@H](CO)C(N)=O)[C@@H](C)O (mixture of isomers) [Peptide 15, Lip-Lys-Thr-Thr-Arg-Ser-NH2]	urokinase (Homo sapiens)	2.46
